Each entry below carries its reported TGI.
System: HOP-62 NSCLC
Protocol Text: NCI tumour cell line growth inhibition, 48 h
Where a SMILES comes first, the peptide text is derived from it. [ ]: non-standard residue; d: D form. The star is where a group is joined. ξ: configuration not given here. NMeF = CN[C@@H](Cc1ccccc1)C(=O)O; NMeV = CN[C@H](C(=O)O)C(C)C; ξNMeN = CNC(CC(N)=O)C(=O)O; NMeA = CN[C@@H](C)C(=O)O; ξNMeV = CNC(C(=O)O)C(C)C; Boc = CC(C)(C)OC(=O)*
Endpoint: TGI

INSERT INTO results (compound, endpoint, recorded_measurement) VALUES
  ('COc1cc2cnc3c(c2c(OC)c1OC)Cc1cc2c(cc1-3)OCO2', 'TGI', '10.9 µM'),
  ('NCCCCCn1c2c(c3ccccc3c1=O)C(=O)c1ccccc1-2', 'TGI', '2.19 µM'),
  ('CN(C)CCONC(=O)C12CC3CC(CC(C3)C1)C2', 'TGI', '> 100 µM'),
  ('Cc1oc2c(C(=O)N/N=C\c3ccc(O)cc3O)c[nH]c2c1C', 'TGI', '26.3 µM'),
  ('COc1cccc2c1O/C(=C\c1ncc([N+](=O)[O-])n1C)C2=O', 'TGI', '2.25 µM'),
  ('CC(C)NC(C)C(C)c1ccccc1 (stereo not drawn)', 'TGI', '> 100 µM'),
  ('COC(=O)C(Cc1ccc(OC)cc1O)NC(=O)OC(C)(C)C (stereo not drawn)', 'TGI', '> 100 µM'),
  ('N#CC(C/C=C/c1ccccc1)NNC(=O)c1c(Cl)c(Cl)c(Cl)c(Cl)c1-c1nc2ccc(C(=O)c3ccccc3)cc2[nH]1 (stereo not drawn)', 'TGI', '24.8 µM'),
  ('O=[N+]([O-])c1nccn1COCCO', 'TGI', '> 100 µM'),
  ('CCC(C)NC(=S)N/N=C(\C)c1nc2ncccc2[nH]1 (stereo not drawn)', 'TGI', '> 100 µM'),
  ('CC(CCOc1ccc2ccc(=O)oc2c1)C1=CC(=O)C(C)(C)O1 (stereo not drawn)', 'TGI', '21.3 µM'),
  ('CC1=C(C(=O)CC(=O)C(=O)Nc2ccc(Cl)cc2C)Sc2ccccc2N1', 'TGI', '> 100 µM'),
  ('CN(C)CC/C(=N\Nc1ccc(Cl)cc1)c1ccccc1', 'TGI', '3.62 µM'),
  ('O=C1OCCC1(Cc1ccc(Cl)cc1)Cc1ccc(Cl)cc1', 'TGI', '89.2 µM'),
  ('N#CC1CCCC2SC(F)(F)C(F)(F)C12 (stereo not drawn)', 'TGI', '> 100 µM'),
  ('Nc1nc(Cl)c(N=Nc2ccc(Cl)cc2)c(NCC2(CO)CCC(CCc3ccccc3)C2)n1 (stereo not drawn)', 'TGI', '28.1 µM'),
  ('COC(=O)C1[C@@H](C(=O)OC)C(=O)O[C@H]1c1cc(OC)c(OC)c(OC)c1 (stereo partly drawn)', 'TGI', '> 100 µM'),
  ('COc1ccc(C2SC(N)=Nc3c2c(C)nn3C(=O)Cc2ccccc2)cc1 (stereo not drawn)', 'TGI', '> 100 µM'),
  ('CCOC(=O)/C(C#N)=C\C=C(\Sc1nc2ccccc2s1)c1ccc(Cl)cc1', 'TGI', '72.2 µM'),
  ('C=C1CC2(CCOc3ccc(Cl)cc32)OC1=O (stereo not drawn)', 'TGI', '22.7 µM'),
  ('CCn1c(=O)c2cn[nH]c2n(C)c1=O', 'TGI', '> 100 µM'),
  ('COc1cc(-c2nc3ccc(N4CCN(C)CC4)cc3[nH]2)c(OC)c2[nH]c(CO)nc12', 'TGI', '> 100 µM'),
  ('c1ccc(-c2nnc(CCCCCCCCc3nnc(-c4ccccc4)o3)o2)cc1', 'TGI', '> 100 µM'),
  ('CCC1=C(C(C)=O)[C@@H]2CCCCC(C(=O)OC)[C@@H]2C1=O (stereo partly drawn)', 'TGI', '> 100 µM'),
  ('CC1(C)Oc2ccccc2OC1O (stereo not drawn)', 'TGI', '> 100 µM'),
  ('COC(=O)[C@H](C)N(C)C(=O)C(CC(N)=O)N(C)C(=O)[C@H](Cc1ccccc1)N(C)C(=O)[C@@H]1CCCN1C(=O)[C@H](C(C)C)N(C)C(=O)C(C(C)C)N(C)C(=O)[C@@H](NC(=O)OC(C)(C)C)C(C)C (stereo partly drawn) (Boc-V[ξNMeV][NMeV]P[NMeF][ξNMeN][NMeA]-OMe)', 'TGI', '> 75 µM'),
  ('Cc1ccc(C2CC(c3cccc([N+](=O)[O-])c3)=Nc3ccccc3S2)cc1 (stereo not drawn)', 'TGI', '> 100 µM'),
  ('Clc1c2ncccc2cc2n[nH]nc12', 'TGI', '> 100 µM'),
  ('C=C(CCOC)CCC1CCCCC/C1=N\N(C)C (stereo not drawn)', 'TGI', '> 100 µM'),
  ('CC(C)N(C(C)C)[PH+]1O[PH+](N(C(C)C)C(C)C)O[PH+](N(C(C)C)C(C)C)O[PH+](N(C(C)C)C(C)C)O1.[C-]#[O+].[C-]#[O+].[C-]#[O+].[C-]#[O+].[C-]#[O+].[C-]#[O+].[C-]#[O+].[C-]#[O+].[Mo].[Mo] (stereo not drawn)', 'TGI', '> 100 µM'),
  ('Cn1cnc([N+](=O)[O-])c1Sc1nc2ccccc2s1', 'TGI', '86.1 µM'),
  ('S=C(S)N1CCCCC1', 'TGI', '> 406 µM'),
  ('OCCN(CCO)c1ccc2c(-c3ccccc3)cc(N(CCO)CCO)nc2n1', 'TGI', '> 100 µM'),
  ('O=C(O)c1ccc(NCc2nc3cc(Cl)c(Cl)cc3[nH]2)cc1', 'TGI', '> 100 µM'),
  ('C[CH2][Pb]([CH2]C)([CH2]C)[O]C(=O)COC', 'TGI', '4.06 µM'),
  ('NS(=O)(=O)c1cc2c(cc1Cl)NC(/C(=N/NC(=O)c1ccncc1)C1C(=O)NC(=O)NC1=O)=NS2(=O)=O', 'TGI', '> 100 µM'),
  ('Cc1ccccc1NC(=O)/C(=N/NC(=O)CC#N)C1C(=O)N(c2ccccc2)N=C1N (stereo not drawn)', 'TGI', '> 100 µM'),
  ('O=c1oc2ccc(Cl)cc2c2ccccc12', 'TGI', '45.1 µM');

###

Test system: UACC-257 melanoma
Protocol Text: NCI tumour cell line growth inhibition, 48 h
Endpoint: TGI

INSERT INTO results (molecule, endpoint, recorded_measurement) VALUES
  ('Cc1ccc(C(=O)Nc2ccc(S(=O)(=O)O)c3cc(S(=O)(=O)O)cc(S(=O)(=O)O)c23)cc1N', 'TGI', '> 100 µM'),
  ('CC(=O)Nc1ccc(-c2nnc(SCC(=O)Nc3ccccc3)o2)cc1', 'TGI', '> 100 µM'),
  ('COc1ccc2c(c1)[n+](=O)c(C(=O)CC(=O)C(=O)Nc1cccc(Cl)c1C)c(C)n2[O-]', 'TGI', '> 100 µM'),
  ('CNCCCNc1nc2ccccc2c2c(=O)c3cc(F)ccc3sc12', 'TGI', '3.74 µM'),
  ('CCN=c1nc2sc3c(c2c(NC(=S)NCC)s1)CCN(N1CCc2c(sc4nc(=NCC)sc(NC(=S)NCC)c24)C1)C3', 'TGI', '> 100 µM'),
  ('CC(=O)Oc1cc(C(C)C)c(OCCN(C)C)cc1C', 'TGI', '> 100 µM'),
  ('Cc1cc(Cl)ccc1OCc1nn2c(CCCCc3nnc4sc(COc5ccc(Cl)cc5C)nn34)nnc2s1', 'TGI', '> 100 µM'),
  ('Cc1[nH]c(=O)nc2nc3ccc(Cl)cc3c(N(CCO)CCO)c12', 'TGI', '> 100 µM'),
  ('COC(=O)[C@@]12CN(C)[C@@H](C(C)(C)C)N1C(=O)OC2c1ccccc1 (some centres undefined)', 'TGI', '> 100 µM'),
  ('COc1cc(S(=O)(=O)Nc2nc(-c3ccc(N4C(=O)/C(=C\c5cccs5)N=C4c4ccccc4)cc3)cs2)ccc1Cl', 'TGI', '> 100 µM'),
  ('CCNc1cnc2c(n1)c(=O)n(C)c(=O)n2C', 'TGI', '> 100 µM'),
  ('CCCCNC(=O)c1cc(S(=O)(=O)n2cc[nH]c2=O)c(SC)cc1Cl', 'TGI', '> 100 µM'),
  ('CCn1c(=O)c2cn[nH]c2n(C)c1=O', 'TGI', '> 100 µM'),
  ('CCSc1n/c(=C\c2ccc(N(C)C)cc2)c2nnnn12', 'TGI', '> 100 µM'),
  ('CCCCOC(=O)CC(CC(=O)OCCCC)(OC(C)=O)C(=O)OCCCC', 'TGI', '> 200 µM'),
  ('CCC1=CCN(c2ccc(C)cc2)OC1c1ccc(OC)cc1 (centres undefined)', 'TGI', '> 100 µM'),
  ('CSC1N=CNc2c1sc(=S)n2-c1ccccc1 (centres undefined)', 'TGI', '> 100 µM'),
  ('O=C(NC(=S)Nc1ccc2c(c1)Sc1ccccc1O2)c1ccccc1', 'TGI', '> 100 µM'),
  ('COc1ccc(/C(Cl)=C(\CN(C)C)c2ccc(OC)c(OC)c2)cc1OC', 'TGI', '> 100 µM'),
  ('Nn1c(SCC(=O)O)nc2ccccc2c1=O', 'TGI', '> 100 µM'),
  ('CN(CCCNC(=O)c1nn(-c2ccccc2)c2c1ccc1ccccc12)CCCNC(=O)c1nn(-c2ccccc2)c2c1ccc1ccccc12', 'TGI', '3.65 µM'),
  ('c1ccc(CC(Cc2ccccc2)C2=NCCCN2)cc1', 'TGI', '> 100 µM'),
  ('Clc1ccc(Cn2c(CN3CCCC3)nc3ccccc32)cc1', 'TGI', '55 µM'),
  ('CCCCCCCCCCCC[C@@H](O)[C@H]1CC[C@H]([C@H]2CC[C@H]([C@H](O)CC[C@H](O)CCCCCCCC3=C[C@H](C)OC3=O)O2)O1', 'TGI', '2.35 µM');
